Hey, just so you know, these numbers are from PubChem BioAssay.

Measurement notes: reducers of endogenous Her2 protein level, primary screen, SKBR3 breast tumor cells, AlphaScreen, ATP viability (AID 461);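 note: percent of carrier control wells set as 100% viability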
Test context: 18-24 h, measured here: SKBR3 viability, ATP luminescence, at 10 µM
Assay endpoint: viability (%)

                                   molecule  unit_of_measure  endpoint_value
0  COc1ccc2c(c1OC)C(=O)OC2C1c2c(cc3c(c2OC)OCO3)CCN1C (stereo not drawn)                %              89
1  COc1cc(S(=O)(=O)N2CCOCC2)ccc1NC(=O)COC(=O)C12CC3CC(CC(C3)C1)C2                %              92
2                COCCSc1ccccc1C(=O)Nc1nncs1                %              88

----------
Measured viability, listed per entry.
Measurement notes: SK-BR-3 cell growth inhibitors, pilot screen, 24 h, human (AID 572);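 note: compound exposure lasted between 18 and 24 h rather than exactly 24 h; 100% = carrier-treated control wells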
Test context: SK-BR-3 viability, CellTiter-Glo luminescence, at 10 µM, stronger effect = lower value
Assay endpoint: viability (%)

>>> print(df.to_string())
                                    compound  endpoint_value
 0           CCOc1ccccc1OCC(=O)Nc1nnc(COC)s1              89
 1  COc1ccccc1C1C(C(C)=O)=C(O)C(=O)N1CCc1ccccc1 (stereo not drawn)            93.5
 2  CC(C)(C)OC(=O)NC(CCNC=C1C(=O)OC(C)(C)OC1=O)C(=O)O (stereo not drawn)             105
 3               O=C1OC2(c3ccccc3)C3CCCC2C13             100
 4  CCC(=O)N1CCc2cc(S(=O)(=O)CCC(=O)Nc3ccc(C)c(F)c3)ccc21             100
 5  CCCCS(=O)(=O)NC1=NCN(C2CCN(Cc3ccccc3)CC2)CN1             116
 6  CCCNS(=O)(=O)c1ccc(OCC(=O)NCc2ccc3c(c2)OCO3)cc1             105
 7   C=CCOc1ccccc1/C=c1\sc2nc(=O)c(C)nn2c1=O             100
 8  COCCNC(=O)CSc1nc(-c2ccc(OC)c(OC)c2)cc(C(F)(F)F)n1            98.5
 9          CC(C)OC(=O)c1cc(=O)[nH]c2ccccc12             128
10   CCCSc1nc2c(cnn2-c2ccc(Cl)cc2)c(=O)[nH]1             106
11  CCN(CC)S(=O)(=O)c1ccc2c(c1)c(=O)c(C(=O)NCCOC)cn2C            88.5
12  CCCn1cnc2c(c1=O)c1nc3ccccc3nc1n2Cc1ccccc1OC              99

----------
Measured growth inhibition, listed per entry.
Measurement notes: Restrictive medium S. cerevisiae growth inhibition, OD615, pilot screen of yeast lifespan reduction project, restrictive growth control (AID 706);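 note: modified DeaD lifespan yeast strain shifted to restrictive glucose medium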
Test context: OD615, 48 h, at 10 µM, stronger effect = higher value
Assay endpoint: growth inhibition (%)

In [3]: df
Out[3]:
                                    compound  endpoint_value
 0            O=C1CCCCCN1CP(=O)(O)CCc1ccccc1          -0.455
 1    O=C(NCc1ccco1)C1CCN(C(=O)Cc2ccccc2)CC1            4.75
 2           CCc1n[nH]c2c1/C(=N\O)CC(C)(C)C2           -1.83
 3  Cc1cc(NC(=O)c2cc(-c3cccs3)nc3ccccc23)no1           -5.12
 4       O=C(Nc1nnc(-c2ccccc2)o1)Nc1ccccc1Cl             -12
 5  COc1ccc(C(CNC(=O)C2CC(=O)N(Cc3ccc(C)cc3)C2)N(C)C)cc1 (stereo not drawn)           -7.34
 6  CCCC(NS(=O)(=O)c1ccc(OC)cc1)C(=O)O (stereo not drawn)           -7.75
 7        CSc1nc(-c2ccccc2)nc2[nH]ccc(=O)c12           -18.3
 8  NC(=O)c1ccsc1NC(=O)c1ccc(S(=O)(=O)N2CCCCC2)cc1           -4.94
 9  Cc1ccccc1CN1C(=O)C(O)(CC(=O)c2ccncc2)c2ccccc21 (stereo not drawn)           -5.55
10       CCOC(=O)c1cn(-c2ccccc2)nc1-c1cccnc1           -8.75
11  Cc1ccc(OCC(O)CN2CCN(CC(O)COc3ccc(C)cc3Cl)CC2)c(Cl)c1 (stereo not drawn)           -17.4
12          O=C(Cn1cc2c(n1)CCCC2)NCCCN1CCCC1            4.09
13  Cc1nn(-c2ccccc2)c2sc(C(=O)OCN3C(=O)c4ccccc4C3=O)cc12           -6.25
14             CC(C)c1ccc(NC(=O)c2cccnc2)cc1           -12.2
15  O=C(NCc1cccs1)C1CCCN(S(=O)(=O)c2ccc3c(c2)OCO3)C1 (stereo not drawn)           -1.21
16        Cc1nn(C)c(C)c1N=Cc1c(O)ccc2ccccc12           -28.4
17           CCOc1ccccc1CNC(=O)c1cc2occc2n1C            5.16
18       COC(=O)c1ccccc1NC(=O)c1cc(C2CC2)on1            4.01
19  O=C(CN1CCN(c2ccccn2)CC1)N(c1ccccc1)c1ccc2ccccc2c1          -0.835
20  Cc1c(NC2=C(Cl)C(=O)N(c3ccccc3)C2=O)c(=O)n(-c2ccccc2)n1C            28.3
21  Cc1ccc(CC(=O)N2CCC(c3nc4c(nnn4Cc4ccccc4)c(=O)[nH]3)CC2)cc1           -7.38
22    Cc1ccn2c(-c3csc(NCc4ccco4)n3)c(C)nc2c1            2.84
23  Cc1c(C(=O)OCC2CCCO2)[nH]c2c1C(=O)CC(c1ccc(N(C)C)cc1)C2 (stereo not drawn)             3.2
24  CCOc1ccc(NC(=O)CSc2nc3c(c(=O)n2C)SC(C)C3)cc1 (stereo not drawn)           -13.2
25  COc1cc2c(C(=O)N3CCN(Cc4ccc5c(c4)OCO5)CC3)cn(C)c(=O)c2cc1OC           -4.51
26  O=C(Nc1ccc(Cl)cc1)C1CC2CCCC(C1)C2=O (stereo not drawn)           -3.51
27                  CN(C)/C=C1/Sc2ccccc2C1=O              10
28  O=C1C2CCCN2C(c2ccc(Br)cc2)N1c1ccc(F)cc1 (stereo not drawn)           -3.76
29  CC(C)CC(NC(=O)C1CCCCC1)C(=O)NCc1ccccn1 (stereo not drawn)           -10.9
30             Fc1cc2nc(-c3ccncc3)[nH]c2cc1F           -19.1
31  Cc1nnc(Sc2nc3c(c(=O)[nH]c(=O)n3C)n2CCc2ccccc2)s1           -13.6
32  Cc1cc(NS(=O)(=O)c2ccc(NC(=O)Nc3ccccc3)cc2)no1           -7.87
33      O=C(c1ccc(F)cc1)c1cn[nH]c1-c1ccccc1O           -15.9
34  CCOc1ccc(C2CC(c3ccccc3C)n3ncnc3N2)cc1 (stereo not drawn)            13.4
35        CCN1C(=S)SC(=O)C1=C1C=C(C)OC(C)=C1            14.9
36       Cc1ccc(S(=O)(=O)CNC(=O)c2ccccc2)cc1            3.26
37               O=C(NCCc1cn2ccsc2n1)c1cccs1           -12.4
